Below is a list of entries, each paired with its recorded pEC50 value.
- Test system: SYK dependent basophil degranulation (CD63 surface expression on basophils in whole blood)
- Measurement Protocol: CD63-assay (cellular assay for SYK-inhibition) in whole blood
- Type: cell-based
- Measurement Setup: read-out: EC50 in CD63-assay
pEC50: −log10 of the molar value.

Ask: # pEC50 lookup, item Cc1cc2c(O[C@H](C)[C@H]3CNC(=O)C3)cc(-c3cnn(C(C)(C)C)c3)cn2n1 [example 6.60 on page 587 of WO15017610, reference compound]
Result: 6.32

Ask: # pEC50 lookup, item Cc1cnn2cc(-c3cnn(C(C)(C)C)c3)cc(O[C@H](C)[C@H]3CNC(=O)C3)c12 [example 6.09 on page 559 of WO15017610, reference compound]
Result: > 6.82

Ask: # pEC50 lookup, item Cc1cnn2cc(-c3cnn(C(C)(C)C)c3)nc(O[C@H](C)[C@H]3CNC(=O)C3)c12 [example 5.20 on page 506 of WO15017610, reference compound]
Result: > 6.82

Ask: # pEC50 lookup, item C[C@@H](Oc1cc(-c2cnn(C(C)(C)C)c2)cc2ncn(C)c12)[C@H]1CNC(=O)C1 [example 3B.22 on page 219 of WO15017610, reference compound]
Result: > 6.82

Ask: # pEC50 lookup, item C[C@@H](Oc1nc(-c2cnn(C(C)(C)C)c2)cc2ncn(C)c12)[C@H]1CNC(=O)C1 [example 3A.02, on page 196 of WO15017610, reference compound]
Result: > 6.82

###

- Experimental System: Recombinant human Aurora B (amino acids 1-344) (Homo sapiens (Human), UniProt Q96GD4)
- Sequence (Q96GD4 whole entry, the tested form may be a part): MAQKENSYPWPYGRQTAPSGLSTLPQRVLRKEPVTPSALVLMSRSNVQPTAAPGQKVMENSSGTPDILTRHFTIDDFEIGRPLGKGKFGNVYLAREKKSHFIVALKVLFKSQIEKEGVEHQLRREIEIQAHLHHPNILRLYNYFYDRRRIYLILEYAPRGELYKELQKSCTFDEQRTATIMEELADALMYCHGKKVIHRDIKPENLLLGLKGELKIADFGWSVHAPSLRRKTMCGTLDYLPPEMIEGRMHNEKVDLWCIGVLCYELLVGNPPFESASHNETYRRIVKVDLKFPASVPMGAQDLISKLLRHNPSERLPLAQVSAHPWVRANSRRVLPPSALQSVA
- Measurement Protocol: Aurora B kinase test (ADP Glo)
- Type: biochemical
- Measurement Setup: read-out: IC50(AURB)
- Experimental: The activity of the Aurora B kinase protein was determined using the ADP Glo® Luminescence Kinase test (Promega; V9103X). In this homogeneous test the amount of ADP remaining after the kinase reaction is quantified by a luciferin-luciferase reaction using luminescence. The luminescence signal obtained correlates with the amount of ADP still present and thus correlates with the activity of the protein kinase. […] The output file of the reader is a csv file that contains the well number and measured RLU. […]
Below is a list of entries, each paired with its recorded IC50 value.
Only the number, expressed in nM, is required.

Example results:
[[record]]
compound = "C[C@@H](Oc1nc(-c2cnn(C(C)(C)C)c2)cc2ncn(C)c12)[C@H]1CNC(=O)C1 [example 3A.02, on page 196 of WO15017610, reference compound]"
experimental_system = "Recombinant human Aurora B (amino acids 1-344) (Homo sapiens (Human), UniProt Q96GD4)"
assay_metric = "IC50"
measured_value = 1690

[[record]]
compound = "Cc1cnn2cc(-c3cnn(C(C)(C)C)c3)nc(O[C@H](C)[C@H]3CNC(=O)C3)c12 [example 5.20 on page 506 of WO15017610, reference compound]"
experimental_system = "Recombinant human Aurora B (amino acids 1-344) (Homo sapiens (Human), UniProt Q96GD4)"
assay_metric = "IC50"
measured_value = 162

[[record]]
compound = "Cc1cnn2cc(-c3cnn(C(C)(C)C)c3)cc(O[C@H](C)[C@H]3CNC(=O)C3)c12 [example 6.09 on page 559 of WO15017610, reference compound]"
experimental_system = "Recombinant human Aurora B (amino acids 1-344) (Homo sapiens (Human), UniProt Q96GD4)"
assay_metric = "IC50"
measured_value = 37


Ask: Item: C[C@@H](Oc1cc(-c2cnn(C(C)(C)C)c2)cc2ncn(C)c12)[C@H]1CNC(=O)C1 [example 3B.22 on page 219 of WO15017610, reference compound] Test system: Recombinant human Aurora B (amino acids 1-344) (Homo sapiens (Human), UniProt Q96GD4) Read-out: IC50 Value: ?
Result: 771

###

- Experimental System: Recombinant human Aurora B (amino acids 1-344) (Homo sapiens (Human))
- Measurement Protocol: Aurora B kinase test (ADP Glo)
- Assay type: biochemical
- Measurement Setup: read-out: AURB inhibition IC50-value (chapter 5.3)
Below is a list of entries, each paired with its recorded pIC50 value.
API: returns pIC50 as number; meaning -log10 of concentration in mol/L.

Example results:
[[record]]
compound = "C[C@@H](Oc1cc(-c2cnn(CCC(F)(F)F)c2)cc2nn(C)c(F)c12)[C@H]1CNC(=O)C1"
assay_metric = "pIC50"
measured_value = 4.53

[[record]]
compound = "CC(C)n1cc(-c2cc(O[C@H](C)[C@H]3CNC(=O)C3)c3c(F)n(C)nc3c2)cn1"
assay_metric = "pIC50"
measured_value = 4.51

[[record]]
compound = "Cc1c2c(O[C@H](C)[C@H]3CNC(=O)C3)cc(-c3cnn(C4CC4)c3)cc2nn1C"
assay_metric = "pIC50"
measured_value = 4.46


Ask: # pIC50 lookup, item Cc1c2c(O[C@H](C)[C@H]3CNC(=O)C3)cc(-c3cnn(CC4CC4)c3)cc2nn1C
Result: 4.68

Ask: # pIC50 lookup, item Cc1c2c(O[C@H](C)[C@H]3CNC(=O)C3)cc(-c3cnn([C@H]4CO[C@@H]5CCCO[C@@H]54)c3)cc2nn1C
Result: 4.47

Ask: # pIC50 lookup, item C[C@@H](Oc1cc(-c2cnn(C3CC3)c2)cc2nn(C)c(F)c12)[C@H]1CNC(=O)C1
Result: 4.30

Ask: # pIC50 lookup, item Cc1cnn2cc(-c3cnn(C(C)(C)C)c3)nc(O[C@H](C)[C@H]3CNC(=O)C3)c12 [example 5.20 on page 506 of WO15017610, reference compound]
Result: 6.79

Ask: # pIC50 lookup, item Cc1c2c(O[C@H](C)[C@H]3CNC(=O)C3)cc(-c3cnn(C4CCC(F)(F)C4)c3)cc2nn1C (stereo partly drawn)
Result: 4.87

Ask: # pIC50 lookup, item C[C@@H](Oc1cc(-c2cnn(C3CC(C)(C)OC3(C)C)c2)cc2nn(C)c(F)c12)[C@H]1CNC(=O)C1 (stereo partly drawn)
Result: 4.30

###

- Experimental System: Recombinant human SYK (amino acids 342-635), GST-SYK kinase fusion protein (Homo sapiens (Human), UniProt P43405)
- Measurement Protocol: SYK kinase inhibition test (Kinase Glo luminescence)
- Type: biochemical
- Measurement Setup: read-out: IC50(SYK) in SYK-inhibition assay
Assay Metric: IC50

Example results:
[[record]]
compound = "Cc1cnn2cc(-c3cnn(C(C)(C)C)c3)cc(O[C@H](C)[C@H]3CNC(=O)C3)c12 [example 6.09 on page 559 of WO15017610, reference compound]"
measured_value = "< 0.01 µM"

[[record]]
compound = "C[C@@H](Oc1nc(-c2cnn(C(C)(C)C)c2)cc2ncn(C)c12)[C@H]1CNC(=O)C1 [example 3A.02, on page 196 of WO15017610, reference compound]"
measured_value = "< 0.01 µM"


Ask: # IC50 lookup, item Cc1cnn2cc(-c3cnn(C(C)(C)C)c3)nc(O[C@H](C)[C@H]3CNC(=O)C3)c12 [example 5.20 on page 506 of WO15017610, reference compound]
Result: < 0.01 µM

Ask: # IC50 lookup, item Cc1cc2c(O[C@H](C)[C@H]3CNC(=O)C3)cc(-c3cnn(C(C)(C)C)c3)cn2n1 [example 6.60 on page 587 of WO15017610, reference compound]
Result: 0.0103 µM

Ask: # IC50 lookup, item C[C@@H](Oc1cc(-c2cnn(C(C)(C)C)c2)cc2ncn(C)c12)[C@H]1CNC(=O)C1 [example 3B.22 on page 219 of WO15017610, reference compound]
Result: < 0.01 µM

###

- Test system: human hepatocytes
- Measurement Protocol: Human hepatocyte stability test
- Format: in vitro ADME
- Measurement Setup: human hepatocyte suspension, percent of hepatic blood flow
So basically, if stability in human hepatocytes (chapter 5.7) HEPhu comes in under 7 % Qh it's true (1), and if it's 7 % Qh or more it's false (0).

Check out these entries, answers already filled in.
[[record]]
compound = "Cc1c2c(O[C@H](C)[C@H]3CNC(=O)C3)cc(-c3cnn(C(C)C)c3)cc2nn1C"
classification = "true (1)"

[[record]]
compound = "Cc1cc2c(O[C@H](C)[C@H]3CNC(=O)C3)cc(-c3cnn(C(C)(C)C)c3)cn2n1 [example 6.60 on page 587 of WO15017610, reference compound]"
classification = "true (1)"

[[record]]
compound = "Cc1c2c(O[C@H](C)[C@H]3CNC(=O)C3)cc(-c3cnn(C(C)(C)C#N)c3)cc2nn1C"
classification = "true (1)"

[[record]]
compound = "C[C@@H](Oc1cc(-c2cnn(C3CCC3)c2)cc2nn(C)c(F)c12)[C@H]1CNC(=O)C1"
classification = "false (0)"

[[record]]
compound = "Cc1c2c(O[C@H](C)[C@H]3CNC(=O)C3)cc(-c3cnn([C@@H]4CCOC(C)(C)C4)c3)cc2nn1C"
classification = "true (1)"


Alright, here's another compound for you.
Ask: Quick check: does C[C@@H](Oc1cc(-c2cnn(C3CC(C)(C)OC3(C)C)c2)cc2nn(C)c(F)c12)[C@H]1CNC(=O)C1 (stereo partly shown) have stability in human hepatocytes (chapter 5.7) HEPhu under 7 % Qh?
Result: false (0)
